biological target: glucokinase (GK) (Homo sapiens); construct: I.D. No. 1 corresponds to residues 12-465 of glucokinase; made in house; host or cells: E. coli DH10b-T1r; test: enzymatic glucokinase activity assay (ATP consumption, KinaseGlo luminescence); type: biochemical; settings: calculated maximal gain in GK enzyme activity at a saturating concentration of the compound; 5 mM Glucose, 5 μM ATP; read-out: % ACTmax
Sequence (P35557 with tags, fused parts or gaps isoform P35557-2): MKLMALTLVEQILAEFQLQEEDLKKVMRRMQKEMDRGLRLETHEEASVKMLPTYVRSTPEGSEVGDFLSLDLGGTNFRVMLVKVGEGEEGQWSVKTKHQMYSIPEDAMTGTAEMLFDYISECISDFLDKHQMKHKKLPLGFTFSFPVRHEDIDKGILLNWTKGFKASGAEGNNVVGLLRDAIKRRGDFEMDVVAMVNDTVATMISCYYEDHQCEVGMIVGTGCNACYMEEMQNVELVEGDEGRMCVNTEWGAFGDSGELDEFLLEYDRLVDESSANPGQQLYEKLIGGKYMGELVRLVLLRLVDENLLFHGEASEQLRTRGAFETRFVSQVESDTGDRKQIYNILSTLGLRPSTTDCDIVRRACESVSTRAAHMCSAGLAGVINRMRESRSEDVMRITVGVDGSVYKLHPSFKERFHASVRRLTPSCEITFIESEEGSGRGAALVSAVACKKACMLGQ
endpointName: Emax

IN: Any idea what Emax was measured for CC(C)CC(C(=O)Nc1nccs1)n1cc2ccc([N+](=O)[O-])cc2n1 (stereo not drawn) ?
OUT: < 50%

More entries:
IN: Any idea what Emax was measured for Cc1c2cc(F)ccc2nn1C(CC(C)C)C(=O)Nc1nccs1 (stereo not drawn) ?
OUT: 50 to 60%

IN: Any idea what Emax was measured for CC(C)CC(C(=O)Nc1nccs1)n1cc2ccc(S(C)(=O)=O)cc2n1 (stereo not drawn) ?
OUT: < 50%

IN: Any idea what Emax was measured for CC(C)CC(C(=O)Nc1nccs1)n1cc2cc(O)ccc2n1 (stereo not drawn) ?
OUT: > 60%

IN: Any idea what Emax was measured for COc1ccc2nn(C(CC(C)C)C(=O)Nc3nccs3)cc2c1 (stereo not drawn) ?
OUT: 50 to 60%

IN: Any idea what Emax was measured for CC(C)CC(C(=O)Nc1ccccn1)N1C(=O)c2ccccc2C1=O (stereo not drawn) ?
OUT: > 60%

IN: Any idea what Emax was measured for Cc1c2ccccc2nn1C(CC(C)C)C(=O)Nc1nccs1 (stereo not drawn) ?
OUT: < 50%

IN: Any idea what Emax was measured for CC(C)CC(C(=O)Nc1nccs1)N1C(=O)c2ccccc2C1=O (stereo not drawn) ?
OUT: > 60%

IN: Any idea what Emax was measured for N=C1c2cc(F)ccc2CN1C(CC1CCCCC1)C(=O)Nc1nccs1 (stereo not drawn) ?
OUT: > 60%
